- System: Norovirus
- ASSAY_METHOD_TEXT: Antiviral activity against HG23 cells harboring Norovirus replicon assessed as decrease in viral RNA level measured after 48 hrs by qRT-PCR analysis
- Format: functional, cell-based
- MEASUREMENT_CONDITIONS: HG23, 48 h
ATTRIBUTE_MEASURED: EC50

CC(C)C[C@@H]1NC(=O)[C@@H](NC(=O)OCc2ccccc2)Cc2cn(nn2)CCCCNC(=O)CC[C@@H](C=O)NC1=O: 46.3 µM
O=C[C@@H]1CCC(=O)NCCCCCCn2cc(nn2)C[C@H](NC(=O)OCc2ccccc2)C(=O)N[C@@H](Cc2ccccc2)C(=O)N1: 29.5 µM
O=C[C@@H]1CCC(=O)NCCCn2cc(nn2)C[C@H](NC(=O)OCc2ccccc2)C(=O)N[C@@H](CC2CCCCC2)C(=O)N1: 16.1 µM

Kindly consider the entry below.
# input Using the record for `CC(C)C[C@@H]1NC(=O)[C@@H](NC(=O)OCc2ccccc2)Cc2cn(nn2)CCCNC(=O)CC[C@@H](C=O)NC1=O` , report its EC50.
# output 81.5 µM
